// reported inhibition at 0.04 µM per item
assayed.target: CDK4 (Homo sapiens, UniProt P11802+Q16531)
Sequence (P11802 2-303 limits assumed): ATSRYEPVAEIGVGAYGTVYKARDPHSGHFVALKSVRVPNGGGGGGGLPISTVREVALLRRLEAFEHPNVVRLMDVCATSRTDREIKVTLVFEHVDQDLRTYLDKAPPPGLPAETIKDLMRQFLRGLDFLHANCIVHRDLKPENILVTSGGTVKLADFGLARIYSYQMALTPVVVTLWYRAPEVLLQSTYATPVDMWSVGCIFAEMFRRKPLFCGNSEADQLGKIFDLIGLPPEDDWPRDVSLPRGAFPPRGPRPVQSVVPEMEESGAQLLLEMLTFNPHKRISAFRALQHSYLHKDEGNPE
Sequence (P24385 whole entry partner): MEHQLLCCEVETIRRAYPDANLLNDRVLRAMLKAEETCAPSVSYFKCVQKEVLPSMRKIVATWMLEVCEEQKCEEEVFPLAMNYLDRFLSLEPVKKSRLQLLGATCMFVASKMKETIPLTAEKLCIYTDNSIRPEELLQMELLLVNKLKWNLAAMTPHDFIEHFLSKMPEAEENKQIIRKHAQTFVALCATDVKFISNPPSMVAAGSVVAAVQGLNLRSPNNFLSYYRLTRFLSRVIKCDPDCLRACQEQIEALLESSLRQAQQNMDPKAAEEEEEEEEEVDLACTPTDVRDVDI
Sequence (Q16531 2-1140 limits assumed): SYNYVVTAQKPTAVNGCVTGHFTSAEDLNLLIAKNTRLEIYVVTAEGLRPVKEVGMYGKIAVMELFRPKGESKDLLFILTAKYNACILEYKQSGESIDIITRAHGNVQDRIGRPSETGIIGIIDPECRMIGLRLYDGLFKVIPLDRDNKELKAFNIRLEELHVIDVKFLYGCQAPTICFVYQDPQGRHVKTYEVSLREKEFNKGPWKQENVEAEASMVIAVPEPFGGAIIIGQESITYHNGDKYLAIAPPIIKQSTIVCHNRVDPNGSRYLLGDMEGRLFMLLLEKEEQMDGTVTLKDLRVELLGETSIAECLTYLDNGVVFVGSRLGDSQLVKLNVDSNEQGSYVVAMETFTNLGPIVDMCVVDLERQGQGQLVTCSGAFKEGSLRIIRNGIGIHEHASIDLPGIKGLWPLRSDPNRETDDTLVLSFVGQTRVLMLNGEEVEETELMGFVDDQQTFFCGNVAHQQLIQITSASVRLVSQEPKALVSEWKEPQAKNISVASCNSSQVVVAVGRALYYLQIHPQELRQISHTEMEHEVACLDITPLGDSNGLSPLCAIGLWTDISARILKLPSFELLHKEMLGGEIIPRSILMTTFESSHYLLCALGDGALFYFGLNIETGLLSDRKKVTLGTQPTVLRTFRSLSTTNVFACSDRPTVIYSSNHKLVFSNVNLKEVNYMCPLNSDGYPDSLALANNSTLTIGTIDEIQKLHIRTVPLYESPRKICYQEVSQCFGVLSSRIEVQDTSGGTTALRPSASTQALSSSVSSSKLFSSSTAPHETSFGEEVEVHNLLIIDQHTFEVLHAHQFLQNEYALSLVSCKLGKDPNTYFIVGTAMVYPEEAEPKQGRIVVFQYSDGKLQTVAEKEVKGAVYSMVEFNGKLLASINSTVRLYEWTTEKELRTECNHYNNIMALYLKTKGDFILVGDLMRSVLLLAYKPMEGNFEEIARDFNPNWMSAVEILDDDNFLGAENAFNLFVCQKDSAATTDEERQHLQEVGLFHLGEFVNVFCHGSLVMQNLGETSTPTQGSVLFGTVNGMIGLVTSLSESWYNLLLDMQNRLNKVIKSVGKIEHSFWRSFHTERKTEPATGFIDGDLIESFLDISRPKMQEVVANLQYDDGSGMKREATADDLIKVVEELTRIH
assay.notes: CDK4 percentage degradation in Calu-1 cells (Table 6)
Type: cell-based
Parameters: Cells that express cyclin D1-3 and CDK4/6 proteins were treated with heterobifunctional compounds; endogenous in cells; host or cells: Calu-1
details: 40 nM, 16 hours

Worked examples follow.
>>> endpoint_result("CNc1ccc(C(=O)Nc2ccc(C3CC3)nn2)c(NCCCCCNC(=O)CN2CCN(c3ccc(Nc4ncc5c(C)c(C(C)=O)c(=O)n(C6CCCC6)c5n4)nc3)CC2)n1")
"< 30%"
>>> endpoint_result("CNc1ccc(C(=O)Nc2cccc(C3CC3)n2)c(NC2CC3(C2)CN(C(=O)C(C)(C)N2CCN(c4ccc(Nc5ncc6c(C)c(C(C)=O)c(=O)n(C7CCCC7)c6n5)nc4)CC2)C3)n1")
"< 30%"

Quick note, inhibition at 0.04 µM for CNc1ccc(C(=O)Nc2ccc(N(C)C)nn2)c(NC2CCC3(C2)CN(C(=O)CN2CCN(c4ccc(Nc5ncc6c(C)c(C(C)=O)c(=O)n(C7CCCC7)c6n5)nc4)CC2)C3)n1 (centres unmarked) landed at < 30%

The compound identified as CNc1ccc(C(=O)Nc2cn(C)c(C)n2)c(NC2CC3(CC(NC(=O)CN4CCN(c5ccc(Nc6ncc7c(C)c(C(C)=O)c(=O)n(C8CCCC8)c7n6)nc5)CC4)C3)C2)n1 (centres unmarked) registered its inhibition at 0.04 µM at 50 to 80%

get_value(item= CNc1ccc(C(=O)Nc2ccccn2)c(NC2CC3(CC(NC(=O)CN4CCN(c5ccc(Nc6ncc7c(C)c(C(C)=O)c(=O)n(C8CCCC8)c7n6)nc5)CC4)C3)C2)n1 (centres unmarked) , readout=inhibition at 0.04 µM) returns 30 to 50%

Reference source: patent US20260297081A1
